system name: soluble human C3b (human) (UniProt P01024)
Note to self: values exactly at 30 nM are class 1. So iC3b EC50 at or above 30 nM is class 1, below is class 0.

Q. Please check the record CFI-HSA variant N531G; P535A; GGSSGG (SEQ ID NO: 6); CR1(ccp15-17) (enzyme) and state if its iC3b EC50 is at or above 30 nM.
A. class 0

Q. Please check the record CFI-HSA variant E457G; E461Q; N531G; GGSSGG (SEQ ID NO: 6); CR1 (ccp15-17) (from UniProt P17927) (enzyme) and state if its iC3b EC50 is at or above 30 nM.
A. class 1

Q. Please check the record WT; GGSSGG (SEQ ID NO: 6); CR1(ccp15-17) (enzyme) and state if its iC3b EC50 is at or above 30 nM.
A. class 1

Q. Please check the record CFI-HSA variant Y408L; WT; GGSSGG (SEQ ID NO: 6); CR1(ccp15-17) (enzyme) and state if its iC3b EC50 is at or above 30 nM.
A. class 1

Q. Please check the record CFI-HSA variant N531G; WT; GGSSGG (SEQ ID NO: 6); CR1(ccp15-17) (enzyme) and state if its iC3b EC50 is at or above 30 nM.
A. class 1

Q. Please check the record CFI-HSA variant E457G; WT; GGSSGG (SEQ ID NO: 6); CR1(ccp15-17) (enzyme) and state if its iC3b EC50 is at or above 30 nM.
A. class 0

Q. Please check the record CFI-HSA variant Y408L; E457G; E461Q; R462K; N531G; ΔC-term (Δ558-PFISQYNV (SEQ ID NO: 14)-565) (enzyme) and state if its iC3b EC50 is at or above 30 nM.
A. class 1

Q. Please check the record CFI-HSA variant E457G; N531G; WT; GGSSGG (SEQ ID NO: 6); CR1(ccp15-17) (enzyme) and state if its iC3b EC50 is at or above 30 nM.
A. class 0

Q. Please check the record CFI-HSA variant E457G; N531G; P535G; WT; GGSSGG (SEQ ID NO: 6); CR1(ccp15-17) (enzyme) and state if its iC3b EC50 is at or above 30 nM.
A. class 0

Q. Please check the record CFI-HSA variant E457G; N531G; E461Q; R462K; F464Y; GGSSGG (SEQ ID NO: 6); CR1 (ccp15-17) (from UniProt P17927) (enzyme) and state if its iC3b EC50 is at or above 30 nM.
A. class 1

Q. Please check the record CFI-HSA variant Y408L; N531G; ΔC-term (Δ558-PFISQYNV (SEQ ID NO: 14)-565) (enzyme) and state if its iC3b EC50 is at or above 30 nM.
A. class 1

Q. Please check the record CFI-HSA variant N531G; E457G; E461Q; ΔC-term (Δ558-PFISQYNV (SEQ ID NO: 14)-565) (enzyme) and state if its iC3b EC50 is at or above 30 nM.
A. class 1
